Test: Liver microsomal stability
Format: in vitro ADME, mouse
Details: mouse (CD‐1) liver microsomes, NADPH, 37 °C
Description: To evaluate the metabolic stability of our hit compound and assess its drug‐likeness, we investigated the microsomal stability of 17 by incubating it with mouse liver microsomes. We monitored the loss of the compound over time under CYP‐mediated metabolic pathways (Figure 7A). The natural logarithm of the percentage remaining of the compound, calculated by comparing the concentration at each time point with the t0 sample, was plotted against time, yielding a linear regression (R ^2 = 0.98). […]
MEASURED_QUANTITY: half-life

stdin: Reported half-life for O=C(NCc1ccc(-c2ccccc2)cc1)Nc1ccc(NCC2CCNCC2)cc1C(F)(F)F : what is it?
stdout: ~3.3 h
